I'd appreciate it if you could supply IC50 values for the items below.
target: Tumor necrosis factor receptor superfamily member 1A (Homo sapiens)
Sequence (P19438 whole entry): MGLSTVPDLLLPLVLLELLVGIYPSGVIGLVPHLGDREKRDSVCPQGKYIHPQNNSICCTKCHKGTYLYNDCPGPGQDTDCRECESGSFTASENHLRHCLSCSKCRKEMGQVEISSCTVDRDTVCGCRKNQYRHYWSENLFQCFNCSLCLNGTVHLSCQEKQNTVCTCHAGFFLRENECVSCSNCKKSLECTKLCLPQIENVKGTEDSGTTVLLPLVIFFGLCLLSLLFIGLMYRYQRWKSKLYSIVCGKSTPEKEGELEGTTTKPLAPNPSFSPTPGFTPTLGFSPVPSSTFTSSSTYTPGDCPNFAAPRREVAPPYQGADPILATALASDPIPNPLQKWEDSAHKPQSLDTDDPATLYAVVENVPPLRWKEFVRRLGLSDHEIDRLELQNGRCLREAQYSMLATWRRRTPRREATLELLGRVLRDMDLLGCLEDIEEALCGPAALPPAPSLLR
Answers are plain numbers, in µM.

COc1cc(OC)c(-c2cccs2)cc1/C=C/C(=O)c1ccc(OC)c(OC)c1OC; 2

Would you mind giving IC50 for every molecule in the list below?
1. COc1ccc(C(=O)/C=C/c2cc(-c3cc4ccccc4s3)ccc2OC)cc1
2. COc1ccc(-c2cccs2)cc1/C=C/C(=O)c1ccc2c(c1)OCO2
3. COC1=C(c2ccc(C(=O)/C=C/c3cc(OC)c(OC)c(OC)c3)cc2OC)Oc2ccccc2O1
4. COc1ccc(C(=O)/C=C/c2cc(-c3cccs3)ccc2OC)cc1
5. COc1ccc(-c2ccc(C)s2)cc1/C=C/C(=O)c1ccc(OC)c(OC)c1
6. CCOc1cc(OCC)c(C(=O)/C=C/c2cc(Br)c(OC)c(OC)c2)cc1OCC
7. COc1cc(OC)c(C(=O)/C=C/c2cc(Br)c(OC)c(OC)c2)cc1OC

Result:
1. 3
2. 4
3. 4
4. 3
5. 2
6. 15
7. 2

Would you mind giving IC50 for every molecule in the list below?
1. O=C(/C=C/c1ccccc1)c1ccccc1 [Chalcone, 13]
2. COc1ccc(-c2cc(C)cs2)cc1/C=C/C(=O)c1ccc(OC)c(OC)c1

Result:
[23, 2]

* * *

Reported values: pIC50 for UniProt P19438, one per item.
Give bare numbers, as −log10 of the molar value.

COc1cc(OC)c(-c2cc3ccccc3s2)cc1/C=C/C(=O)c1cc(OC)c(OC)c(OC)c1; 5.30
COc1ccc(-c2cc(C(=O)/C=C/c3cc(OC)c(OC)c(OC)c3)c(OC)cc2OC)c(OC)c1; 5.52

Would you mind giving pIC50 for every compound in the list below?
1. COc1ccc(/C=C/C(=O)c2ccc(OC)c(OC)c2)cc1
2. COc1ccc(OC)c(C(=O)/C=C/c2cc(-c3cccs3)ccc2OC)c1
3. COc1ccc(C(=O)/C=C/c2ccccc2)cc1
4. COc1cc(C(=O)/C=C/c2cc(-c3cccs3)ccc2OC)ccc1O
5. COc1ccc(-c2ccc(C)s2)cc1/C=C/C(=O)c1ccc2c(c1)OCO2
6. COc1ccc(-c2cccs2)cc1/C=C/C(=O)c1ccc(OCc2cccnc2)c(OC)c1

Result:
5.22
5.70
4.85
5.15
5.52
5.52

Would you mind giving pIC50 for every compound in the list below?
1. COc1ccc(-c2cccs2)cc1/C=C/C(=O)c1ccc(OC)c(OC)c1
2. COc1ccc(C(=O)/C=C/c2ccccc2)cc1OC [3',4'-dimethoxychalcone]
3. COc1ccc(COc2ccc(C(=O)/C=C/c3cc(OC)c(OC)c(OC)c3)cc2OC)cc1OC
4. COc1ccc(-c2cc(C)cs2)cc1/C=C/C(=O)c1ccc2c(c1)OCO2

Result:
1: 5.52; 2: 5.10; 3: 5.70; 4: 5.40

Would you mind giving pIC50 for every compound in the list below?
1. COc1cc(C(=O)/C=C/c2cc(OC)c(OC)c(-c3cccs3)c2)cc(OC)c1OCC(=O)O
2. COc1cc(OC)c(-c2cc3ccccc3s2)cc1/C=C/C(=O)c1ccc(NC2OC(CO)C(O)C(O)C2O)cc1 (stereo not given)
3. COc1ccc(/C=C/C(=O)c2cc(C(C)(C)C)c(OC)c(C(C)(C)C)c2)cc1
4. COc1cc(C(=O)/C=C/c2ccc(-c3cccs3)cc2)cc(OC)c1OC
5. O=C(/C=C/c1ccc(F)cc1)c1ccc(F)cc1 [(E)-1,3-Bis-(4-fluoro-phenyl)-propenone]
6. COc1ccc(-c2cccs2)cc1/C=C/C(=O)c1cc(OC)c(OC)c(OC)c1

Result:
1: 6.00; 2: 4.77; 3: 4.77; 4: 5.22; 5: 4.60; 6: 5.52
